Reported NHEJ repair efficiency (log10) values are given for each entry in this list.
- System: CLZ3 (HCA2 human fibroblast dual HR-NHEJ reporter)
- ASSAY_COMMENT: NHEJ repair efficiency (GFP+ cells) relative to control (log10 fold); higher = more non-homologous end joining
- CONDITION_SUMMARY: 5 µM; doxycycline 0.5 ug/mL
Provide a numeric answer; units are not to be included.

Reference set (3 entries):
molecule=CCN1C[C@]2(COC)[C@H](O)C[C@H](OC)[C@]34C1[C@H]([C@H](OC)[C@H]23)[C@@]1(OC(C)=O)C[C@H](OC)[C@@]2(O)C[C@@H]4[C@@H]1[C@H]2OC(=O)c1ccccc1 tested_on="CLZ3 (HCA2 human fibroblast dual HR-NHEJ reporter)" measurement_kind="NHEJ repair efficiency (log10)" value_observed=0.0186
molecule="C[C@H]1CCC2N(C1)C[C@H]1C3CC4[C@@H](CC(=O)C5C[C@@H](O)CC[C@@]54C)C3CCC1[C@]2(C)O (some centres undefined)" tested_on="CLZ3 (HCA2 human fibroblast dual HR-NHEJ reporter)" measurement_kind="NHEJ repair efficiency (log10)" value_observed=-0.0507
molecule=Oc1cc(O)cc(/C=C/c2ccc(O)cc2O)c1 tested_on="CLZ3 (HCA2 human fibroblast dual HR-NHEJ reporter)" measurement_kind="NHEJ repair efficiency (log10)" value_observed=0.00144

We now examine a further molecule.
Lookup: Please report the measured NHEJ repair efficiency (log10) for "CCN1C[C@]2(COC)CC[C@H](O)[C@]34C1[C@@](O)([C@@H](OC)[C@H]23)[C@@]1(O)C[C@H](OC)[C@H]2C[C@@H]4[C@@H]1[C@H]2OC" tested on CLZ3 (HCA2 human fibroblast dual HR-NHEJ reporter).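 Also: compound given one day ahead of doxycycline, which switches on I-SceI endonuclease to cut the chromosomally integrated reporter and create DSBs.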
Found: -0.0325
